- Measured on: IDE (Homo sapiens, UniProt P14735)
- Construct: made in house; host or cells: bacteria
- Protocol notes: biochemical
- Details: dose-response, FRET1; read-out: IC50s, Mean
pIC50: −log10 of the molar value. Ends that are not written are not given here.
Where pIC50 equals or exceeds 5, the correct label is yes (1); where it does not, the label is no (0).

>>> class_name("VHWDFRQW-NH2 [P12-1B]")
"no (0)"
>>> class_name("Ac-FRQWWQPS [P12-1C]")
"no (0)"
>>> class_name("QSLPWCYP-NH2 [P12-3B]")
"no (0)"
>>> class_name("WSPISGKFFQRF-NH2 [P12-4A]")
"yes (1)"
>>> class_name("WSPISGKFFQRF [P12-4]")
"yes (1)"

* * *

- Measured on: IDE (Homo sapiens)
- Construct: made in house; host or cells: bacteria
- Protocol notes: biochemical
- Details: substrate recombinant human insulin 50 nM; Ki from IC50 with the Cheng-Prusoff equation
Ends that are not written are not given here.
Endpoint name: Ki

>>> result("Ac-PISGKFFQ-NH2 [P12-4D]")
"≥ 10 µM"
>>> result("WSPISGKF-NH2 [P12-4B]")
"≥ 10 µM"
>>> result("WSPISGKFFQRF-NH2 [P12-4A]")
"2.6 µM"
>>> result("VHWDFRQW-NH2 [P12-1B]")
"7 µM"
>>> result("LNFPMPSRPHSS-NH2 [P12-2A]")
"> 10 µM"
>>> result("VHWDFRQWWQPS [P12-1]")
"0.8 µM"
>>> result("Ac-FRQWWQPS [P12-1C]")
"> 10 µM"
>>> result("LNFPMPSR-NH2 [P12-2B]")
"> 10 µM"
>>> result("WSPISGKFFQRF [P12-4]")
"1.5 µM"
>>> result("LNFPMPSRPHSS [P12-2]")
"> 10 µM"
>>> result("Ac-FPMPSRPH-NH2 [P12-2D]")
"> 10 µM"

* * *

- Measured on: IDE (Homo sapiens, UniProt P14735)
- Construct: made in house; host or cells: bacteria
- Sequence (P14735 1-1019): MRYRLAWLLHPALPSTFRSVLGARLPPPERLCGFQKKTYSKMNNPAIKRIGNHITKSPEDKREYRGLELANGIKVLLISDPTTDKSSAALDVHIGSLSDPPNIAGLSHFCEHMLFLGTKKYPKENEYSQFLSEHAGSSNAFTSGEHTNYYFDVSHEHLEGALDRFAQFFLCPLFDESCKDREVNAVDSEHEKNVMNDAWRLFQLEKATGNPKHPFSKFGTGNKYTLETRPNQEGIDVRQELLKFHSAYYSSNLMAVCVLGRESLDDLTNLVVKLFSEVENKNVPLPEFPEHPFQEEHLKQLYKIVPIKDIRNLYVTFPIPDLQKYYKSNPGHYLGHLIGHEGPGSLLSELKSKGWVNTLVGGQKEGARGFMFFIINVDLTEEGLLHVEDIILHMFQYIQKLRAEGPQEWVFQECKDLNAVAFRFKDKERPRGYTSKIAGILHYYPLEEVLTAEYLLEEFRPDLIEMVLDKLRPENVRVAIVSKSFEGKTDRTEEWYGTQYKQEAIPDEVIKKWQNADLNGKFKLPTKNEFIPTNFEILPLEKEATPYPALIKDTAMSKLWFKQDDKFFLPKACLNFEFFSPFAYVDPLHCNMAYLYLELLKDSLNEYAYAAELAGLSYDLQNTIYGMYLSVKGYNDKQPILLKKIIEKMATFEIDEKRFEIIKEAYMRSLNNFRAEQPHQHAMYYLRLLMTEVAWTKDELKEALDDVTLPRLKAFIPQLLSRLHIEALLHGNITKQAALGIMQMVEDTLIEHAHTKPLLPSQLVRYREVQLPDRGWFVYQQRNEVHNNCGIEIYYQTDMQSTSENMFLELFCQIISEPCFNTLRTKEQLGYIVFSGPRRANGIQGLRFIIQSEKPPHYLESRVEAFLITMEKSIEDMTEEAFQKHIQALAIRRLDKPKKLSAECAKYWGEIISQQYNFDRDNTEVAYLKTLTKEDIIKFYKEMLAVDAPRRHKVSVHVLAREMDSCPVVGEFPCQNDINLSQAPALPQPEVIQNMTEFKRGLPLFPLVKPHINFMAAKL
- Protocol notes: biochemical
- Details: substrate FRET1 5 μM; Ki from IC50 with the Cheng-Prusoff equation; read-out: Ki FRET1
pKi: −log10 of the molar value. Ends that are not written are not given here.
Endpoint name: pKi

>>> result("Ac-FPMPSRPH-NH2 [P12-2D]")
"< 3.30"
>>> result("Ac-MPSRPHSS [P12-2C]")
"< 3.30"
>>> result("Ac-PISGKFFQ-NH2 [P12-4D]")
"≤ 3.30"
>>> result("WSPISGKF-NH2 [P12-4B]")
"≤ 3.30"
>>> result("LNFPMPSRPHSS [P12-2]")
"< 4.00"
>>> result("LNFPMPSR-NH2 [P12-2B]")
"< 3.30"
>>> result("LNFPMPSRPHSS-NH2 [P12-2A]")
"< 4.00"
>>> result("Ac-SGKFFQRF [P12-4C]")
"≤ 3.30"
